target: CHEK1 (human); assay: radiometric filter-binding kinase assay, Kinase HotSpot; conditions: compound 0.5 µM; ATP 10 µM
// residual activity lookup, one value per entry
Give the value; after it, write the unit.

Observe how each entry below is paired with its result.
| Entry smiles | residual activity |
| --- | --- |
| COc1cc2ncnc(Nc3ccc(O)c(Br)c3)c2cc1OC | 92.8% |
| O=c1cc(N2CCOCC2)oc2c(-c3ccccc3)cccc12 | 104% |
| CN[C@@H]1C[C@H]2O[C@@](C)([C@@H]1OC)n1c3ccccc3c3c4c(c5c6ccccc6n2c5c31)C(=O)NC4 | 1.63% |

Report measured residual activity; entry is `CCOc1cc2ncnc(Nc3cccc(Br)c3)c2cc1OCC`
115%

Report measured residual activity; entry is `O=c1[nH]c2ccccc2n1C1CCN(Cc2ccc(-c3nc4cc5[nH]cnc5cc4nc3-c3ccccc3)cc2)CC1`
107%

Report measured residual activity; entry is `O=C(c1ccccc1)c1ccc(N2CCOCC2)cc1O`
108%

Report measured residual activity; entry is `COc1cc2c(Nc3ccc(Br)cc3F)ncnc2cc1OCC1CCN(C)CC1`
94.4%

Report measured residual activity; entry is `O=C(O)c1ccc2c3c1cccc3c(=O)n1c3ccccc3nc21`
101%

###

// residual activity lookup, one value per entry
target: MAP3K11 (human); assay: radiometric filter-binding kinase assay, Kinase HotSpot; conditions: compound 0.5 µM; ATP 10 µM
Dear colleague, please return just the value in %, with no unit written.

Observe how each entry below is paired with its result.
| Entry smiles | Parameter | Numeric value |
| --- | --- | --- |
| O=c1c(-c2ccc(F)cc2)c(-c2ccncc2)[nH]n1-c1ccc(Cl)cc1 | residual activity | 98 |
| O=C1NC(=O)c2c1c1c3ccccc3[nH]c1c1[nH]c3cc(Br)ccc3c21 | residual activity | 14 |
| CCOc1cc2ncnc(Nc3cccc(Br)c3)c2cc1OCC | residual activity | 93 |
| O=c1c2ccccc2[nH]c(=S)n1CCN1CCC(=C(c2ccc(F)cc2)c2ccc(F)cc2)CC1 | residual activity | 95.2 |
| O=c1[nH]c2ccccc2n1C1CCN(Cc2ccc(-c3nc4cc5[nH]cnc5cc4nc3-c3ccccc3)cc2)CC1 | residual activity | 94.6 |
| CCc1nc(-c2ccc(OC)cc2)[nH]c1-c1ccncc1 | residual activity | 96.7 |
| FC(F)(F)c1ccc(/C=C/c2nc(COc3ccc(CCCCn4ccnn4)cc3)co2)cc1 | residual activity | 99.1 |
| COc1cc2c(Nc3ccc(Br)cc3F)ncnc2cc1OCC1CCN(C)CC1 | residual activity | 100 |

Look up and report residual activity, with MAP3K11 (human) as system, for `COc1cc2c(N3CCN(C(=O)Nc4ccc(OC(C)C)cc4)CC3)ncnc2cc1OCCCN1CCCCC1`
100

Look up and report residual activity, with MAP3K11 (human) as system, for `N#C/C(=C1/Nc2ccccc2S1)c1ccnc(NCCc2cccnc2)n1`
72.2

Look up and report residual activity, with MAP3K11 (human) as system, for `Cn1cc(/C=C2\C(=O)Nc3ccc(S(N)(=O)=O)cc32)c2ccccc21`
9.89

Look up and report residual activity, with MAP3K11 (human) as system, for `O=S(=O)(NCCNC/C=C/c1ccc(Br)cc1)c1cccc2cnccc12`
95.6

Look up and report residual activity, with MAP3K11 (human) as system, for `N#CCCc1ccc2c(c1)-c1[nH]c3ccc([N+](=O)[O-])cc3c1CC(=O)N2`
18.4

Look up and report residual activity, with MAP3K11 (human) as system, for `O=c1cc(N2CCOCC2)oc2c(-c3ccccc3)cccc12`
101

Look up and report residual activity, with MAP3K11 (human) as system, for `COc1cc2ncnc(Nc3ccc(O)c(Br)c3)c2cc1OC`
83.7
